Give viability, T/C for every item shown.
Test system: SYO-1 complex spheroid growth, percent test/control
Assay: Anticancer human tumor SYO-1 cell line growth inhibition [Asc];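 also: compound exposure lasted 7 days after spheroids grew 3 days; 100% = DMSO vehicle control viability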
Settings: second compound 0.03 µM; first compound 0.316 µM; stronger effect = lower value
One number for each entry, in %.

CNC(C)C(=O)NC1CN(S(=O)(=O)c2cccc(S(=O)(=O)N3CCC4CCC(C(=O)NC(c5ccccc5)c5ccccc5)N4C(=O)C(NC(=O)C(C)NC)C3)c2)CCC2CCC(C(=O)NC(c3ccccc3)c3ccccc3)N2C1=O (configuration not stated) + CCN1C(C(=O)NC23CCC(C(=O)O)(CC2)CC3)C(c2cccc(Cl)c2F)C2(C(=O)Nc3cc(Cl)ccc32)C12CCCCC2    101

Next up:
QUERY: Find viability, T/C (SYO-1 complex spheroid growth, percent test/control) for the entry O=C(c1cc(Cc2n[nH]c(=O)c3ccccc23)ccc1F)N1CCN(C(=O)C2CC2)CC1 + CCN1C(C(=O)NC23CCC(C(=O)O)(CC2)CC3)C(c2cccc(Cl)c2F)C2(C(=O)Nc3cc(Cl)ccc32)C12CCCCC2
RESULT: 92.4

Each recorded value in this set is attributed to PubChem BioAssay AID1963432.
